Assay: Inhibition of IL4 and LPS-induced IgE production in BALB/c mouse spleen B cell after 6 days by ELISA
Assay type: functional, tissue-based
Settings: 144 h
pIC50: −log10 of the molar value.
The entries below are paired with their reported pIC50.

COMPOUND	pIC50
C[C@]12C=CC(=O)C=C1CC[C@@H]1[C@@H]2[C@@H](O)C[C@@]2(C)[C@H]1CC[C@]2(O)C(=O)CO	8.23
CC/C=C\[C@H](O)[C@H](O)C1=C(C)C(=O)[C@]2(C[C@](OC)(C(=O)c3ccccc3)NC2=O)O1	< 5.00

API: the following record is the query input.
Record summary for CCCC[C@H](O)[C@H](O)C1=C(C)C(=O)[C@]2(O1)C(=O)N[C@@](OC)(C(=O)c1ccccc1)[C@@H]2O [12,13-DIHYDROXYPSEUROTIN A] : reported pIC50 = < 5.00
